# Tested on: MCF-7 cells
# test.summary: MTT proliferation assay, MCF-7
# conditions: 10^−7 M, 48 hours, 100% control cells
observed.property: Cell proliferation percentage MCF-7 2D (%)

| compound | quantitative.result |
| --- | --- |
| C=C1/C(=C\C=C(/CCCC)c2cccc(CCCCCC(C)(C)O)c2)C[C@@H](O)C[C@@H]1O | 74 |
| C=C1/C(=C\C=C(/CCCCCC)c2cccc(CCCCCC(C)(C)O)c2)C[C@@H](O)C[C@@H]1O | 78 |
| C=C1/C(=C\C=C\c2cc(CCCCCC(C)(C)O)cc(CCCCCC(C)(C)O)c2)C[C@@H](O)C[C@@H]1O | 69 |
| C=C1/C(=C\C=C(/CC)c2cccc(CCCCCC(C)(C)O)c2)C[C@@H](O)C[C@@H]1O [PG-136p] | 65 |
| C=C1/C(=C\C=C(/CCC)c2cccc(CCCCCC(C)(C)O)c2)C[C@@H](O)C[C@@H]1O | 69 |
| C=C1/C(=C\C=C(/CCCCCCC)c2cccc(CCCCCC(C)(C)O)c2)C[C@@H](O)C[C@@H]1O | 69 |
| C=C1/C(=C\C=C(/CCCCCC(C)(C)O)c2cccc(CCCCCC(C)(C)O)c2)C[C@@H](O)C[C@@H]1O | 69 |

###

# reported Cell proliferation percentage PC-3 2D; entries follow
# Test system: PC-3 cells
# test.summary: MTT proliferation assay, PC-3
# conditions: 10^−7 M, 48 hours, 100% control cells

| compound | reading.unit | Cell proliferation percentage PC-3 2D |
| --- | --- | --- |
| C=C1/C(=C\C=C(/CCCC)c2cccc(CCCCCC(C)(C)O)c2)C[C@@H](O)C[C@@H]1O | % | 84 |
| C=C1/C(=C\C=C(/CC)c2cccc(CCCCCC(C)(C)O)c2)C[C@@H](O)C[C@@H]1O [PG-136p] | % | 78 |
| C=C1/C(=C\C=C(/CCC)c2cccc(CCCCCC(C)(C)O)c2)C[C@@H](O)C[C@@H]1O | % | 83 |
| C=C1/C(=C\C=C(/CCCCCCC)c2cccc(CCCCCC(C)(C)O)c2)C[C@@H](O)C[C@@H]1O | % | 79 |
| C=C1/C(=C\C=C(/CCCCCC)c2cccc(CCCCCC(C)(C)O)c2)C[C@@H](O)C[C@@H]1O | % | 80 |

###

# Tested on: HaCaT cells
# test.summary: MTT proliferation assay, HaCaT
# conditions: 10^−7 M, 48 hours, 100% control cells

| compound | Cell proliferation percentage HaCaT 2D [%] |
| --- | --- |
| C=C1/C(=C\C=C(/CC)c2cccc(CCCCCC(C)(C)O)c2)C[C@@H](O)C[C@@H]1O [PG-136p] | 68 |
| C=C1/C(=C\C=C(/CCC)c2cccc(CCCCCC(C)(C)O)c2)C[C@@H](O)C[C@@H]1O | 71 |
| C=C1/C(=C\C=C(/CCCCCC)c2cccc(CCCCCC(C)(C)O)c2)C[C@@H](O)C[C@@H]1O | 74 |
| C=C1/C(=C\C=C(/CCCC)c2cccc(CCCCCC(C)(C)O)c2)C[C@@H](O)C[C@@H]1O | 71 |
| C=C1/C(=C\C=C(/CCCCCCC)c2cccc(CCCCCC(C)(C)O)c2)C[C@@H](O)C[C@@H]1O | 71 |
